biological target: DRB1*0401 (DR4w4) (Homo sapiens, UniProt P01903+P01911, A100K/A169T/F76Y/I96L/K127E/L162R/M171V/N62H/P40V/Q125Y/R42H/S133A/S149N/S66Y/V115G/V209L/W38E); construct: endogenous in cells; host or cells: Preiss; assay: HLA class II peptide binding assay; conditions: Table XIXb; DR4w4
Sequence (P01903 26-254 partner, other chains not shown): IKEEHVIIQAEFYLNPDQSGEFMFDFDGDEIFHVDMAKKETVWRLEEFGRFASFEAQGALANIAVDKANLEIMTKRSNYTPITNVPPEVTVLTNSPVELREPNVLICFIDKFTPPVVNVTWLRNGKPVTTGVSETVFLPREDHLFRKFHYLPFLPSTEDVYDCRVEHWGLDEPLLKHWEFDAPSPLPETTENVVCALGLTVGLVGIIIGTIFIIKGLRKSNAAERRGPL
Response field label: string, one of true (DR4w4 binding data strictly below 0.01) or false.

- Sequence Record: "YQNNIVDEI"
  Assigned Category: "true"
- Sequence Record: "VIGPFMKAV"
  Assigned Category: "true"
- Sequence Record: "FDLFLVNGR"
  Assigned Category: "true"
- Sequence Record: "FQEYQCYGS"
  Assigned Category: "true"
- Sequence Record: "LAILSVSSF"
  Assigned Category: "true"
- Sequence Record: "VHDLISDMI"
  Assigned Category: "false"
- Sequence Record: "LATSVLAGL"
  Assigned Category: "false"
- Sequence Record: "LIFFDLFLV"
  Assigned Category: "false"
- Sequence Record: "YKFVVPGAA"
  Assigned Category: "false"
- Sequence Record: "LSTNLPYGR"
  Assigned Category: "false"
- Sequence Record: "LGGVGLVLY"
  Assigned Category: "true"
